Let's look at some compounds and their measured Cytokine induction, IP-10.
Tested on: IL-6, IP-10
Experiment: Cytokine induction (IL-6, IP-10) in mice 6 hours after intravenous administration
Assay type: in vivo
Parameters: unit not given here
Details: intravenous 0.5 mpk
When you answer, write just the number.

Reference set, count: 3
1) CCCCCCCCCOC(=O)CCCCCCCN(CCCCCCCC(=O)OC(CCCCCCCC)CCCCCCCC)CCOC(C)=O ... 366.53
2) CCCCCCCCCOC(=O)CCCCCCCN(CCO)CCCCCCCCCC(=O)OC(CCCCCCCC)CCCCCCCC ... 1015.95
3) CCCCCCCCCOC(=O)CCCCCCCN(CCCCCCCC(=O)OC(CCCCCCCC)CCCCCCCC)CCOCCN(C)C ... 156.41

Query block: Quick check: Cytokine induction, IP-10 of CCCCCCCCC(CCCCCCCC)OC(=O)CCCCCCCN(CCO)CCCCCCCC(=O)OC(CCCCCCCC)CCCCCCCC ?
Result block: 1362.81

Query block: Quick check: Cytokine induction, IP-10 of CCCCC/C=C\C/C=C\CCCCCCCCN(CCO)CCCCCCCC(=O)OCCCCCCCCC ?
Result block: 887.91

Query block: Quick check: Cytokine induction, IP-10 of CCCCCCCCCCCCCCCCCCN(CCO)CCCCCCCC(=O)OC(CCCCCCCC)CCCCCCCC ?
Result block: 687.14

Query block: Quick check: Cytokine induction, IP-10 of CCCCCCCCCOC(=O)CCCCCCCN(CCCO)CCCCCCCC(=O)OC(CCCCCCCC)CCCCCCCC ?
Result block: 1468.94

Query block: Quick check: Cytokine induction, IP-10 of CCCCCCCCCOC(=O)CCCCCCCN(CCO)CCCCCCCC(=O)OCCCCCCCCC ?
Result block: 172.56

Query block: Quick check: Cytokine induction, IP-10 of CCCCCCCCCOC(=O)CCCCCCCN(CCO)CCCCCCC(=O)OCC(CCCCCCCC)CCCCCCCC ?
Result block: 209.63

Query block: Quick check: Cytokine induction, IP-10 of CCCCCCCCCCCCCCN(CCO)CCCCCCCC(=O)OC(CCCCCCCC)CCCCCCCC ?
Result block: 468.86

Query block: Quick check: Cytokine induction, IP-10 of CCCCCCCCCCCCN(CCO)CCCCCCCCCCCC(=O)OC ?
Result block: 234.35

Query block: Quick check: Cytokine induction, IP-10 of CCCCCCCCCOC(=O)CCCCCCCN(CCO)CCCCCCCC(=O)N(CCCCCCCC)CCCCCCCC ?
Result block: 4220.55

Query block: Quick check: Cytokine induction, IP-10 of CCCCCCCCCOC(=O)CCCCCCCN(CCCCCCCC(=O)OC(CCCCCCCC)CCCCCCCC)CCOC ?
Result block: 184.30

Query block: Quick check: Cytokine induction, IP-10 of CCCCCCCC/C=C\COC(=O)CCCCCN(CCO)CCCCCC(=O)OC/C=C\CCCCCCCC ?
Result block: 187.83

Query block: Quick check: Cytokine induction, IP-10 of CCCCCCCCCN(CCCO)CCCCCCCC(=O)OC(CCCCCCCC)CCCCCCCC ?
Result block: 4959.16

Query block: Quick check: Cytokine induction, IP-10 of CCCCCCCCCOC(=O)CCCCCCCN(CCCCCCCC(=O)OC(CCCCCCCC)CCCCCCCC)C[C@@H](C)O ?
Result block: 44.84

The values you see were collected from patent US10857105B2.
